These entries and their values trace back to ChEMBL document CHEMBL1833950.

pIC50: −log10 of the molar value.
// endpoint pIC50 / system Steryl-sulfatase (Homo sapiens, UniProt P08842)
Readout Type: pIC50

>>> obs_value("C[C@]12CC[C@@H]3c4ccc(O)c(F)c4CC[C@H]3[C@@H]1CCC2=O")
5.48
>>> obs_value("C[C@]12CC[C@@H]3c4cc(C=O)c(O)c(C=O)c4CC[C@H]3[C@@H]1CCC2=O")
3.65
>>> obs_value("C[C@]12CC[C@@H]3c4cc(Br)c(O)cc4CC[C@H]3[C@@H]1CCC2=O")
4.40
>>> obs_value("C[C@]12CC[C@@H]3c4ccc(O)c([N+](=O)[O-])c4CC[C@H]3[C@@H]1CC[C@@H]2O")
5.55
>>> obs_value("C[C@]12CC[C@@H]3c4cc([N+](=O)[O-])c(O)cc4CC[C@H]3[C@@H]1CCC2=O")
4.77
>>> obs_value("C[C@]12CC[C@@H]3c4ccc(O)c(C#N)c4CC[C@H]3[C@@H]1CCC2=O")
5.17
>>> obs_value("C[C@]12CC[C@@H]3c4ccc(O)c(Br)c4CC[C@H]3[C@@H]1CCC2=O")
5.32
>>> obs_value("C[C@]12CC[C@@H]3c4ccc(O)c([N+](=O)[O-])c4CC[C@H]3[C@@H]1CCC2=O")
5.62

====

Tested System: Steryl-sulfatase (Homo sapiens) (UniProt P08842)
Measurement Description: Inhibition of human steroid sulfatase using 4-methylumbelliferyl sulfate as substrate at 10 uM by fluorescence assay
Calls of active or inactive are those of the source. The calls are words filed in the database; no cut-off is given here.
Possible outcomes: 1 (active), 0 (inactive)

>>> category("C[C@]12CC[C@@H]3c4cc(C=O)c(O)cc4CC[C@H]3[C@@H]1CCC2=O")
0
>>> category("C[C@]12CC[C@@H]3c4cc(C=O)c(O)c(C=O)c4CC[C@H]3[C@@H]1CCC2=O")
0
>>> category("C[C@]12CC[C@@H]3c4cc([N+](=O)[O-])c(O)c(C=O)c4CC[C@H]3[C@@H]1CCC2=O")
0
>>> category("C[C@]12CC[C@@H]3c4ccc(O)c(C=O)c4CC[C@H]3[C@@H]1CC[C@@]2(O)Cc1ccccc1")
1
>>> category("C[C@]12CC[C@@H]3c4cc(Br)c(O)c(C=O)c4CC[C@H]3[C@@H]1CCC2=O")
0
>>> category("C[C@]12CC[C@@H]3c4ccc(C=O)cc4CC[C@H]3[C@@H]1CCC2=O")
0

====

Recorded measurements of pKi, one per entry
Tested System: UniProt P08842
Sequence (P08842 whole entry): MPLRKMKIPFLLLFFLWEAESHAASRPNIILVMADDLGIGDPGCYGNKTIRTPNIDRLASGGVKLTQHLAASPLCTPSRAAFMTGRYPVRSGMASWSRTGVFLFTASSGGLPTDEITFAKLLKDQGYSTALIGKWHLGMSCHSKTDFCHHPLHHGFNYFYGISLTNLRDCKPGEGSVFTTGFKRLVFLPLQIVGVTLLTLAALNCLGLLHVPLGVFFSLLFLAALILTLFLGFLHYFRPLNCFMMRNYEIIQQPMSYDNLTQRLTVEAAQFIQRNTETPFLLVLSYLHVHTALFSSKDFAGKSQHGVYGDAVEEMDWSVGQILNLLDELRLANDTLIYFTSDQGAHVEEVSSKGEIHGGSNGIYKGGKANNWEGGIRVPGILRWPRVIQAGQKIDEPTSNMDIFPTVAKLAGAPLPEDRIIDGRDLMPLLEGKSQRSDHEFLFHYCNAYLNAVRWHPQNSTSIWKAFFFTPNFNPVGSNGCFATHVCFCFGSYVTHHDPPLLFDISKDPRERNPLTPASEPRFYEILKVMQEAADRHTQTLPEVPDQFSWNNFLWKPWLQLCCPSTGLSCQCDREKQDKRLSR
Measurement Description: Inhibition of human steroid sulfatase using 4-methylumbelliferyl sulfate substrate after 10 mins by fluorescence assay
pKi: −log10 of the molar value.
Readout Type: pKi

>>> obs_value("C[C@]12CC[C@@H]3c4ccc(O)cc4CC[C@H]3[C@@H]1CC[C@@]2(O)Cc1ccccc1")
6.60
>>> obs_value("C[C@]12CC[C@@H]3c4ccc(O)c(F)c4CC[C@H]3[C@@H]1CC[C@@]2(O)Cc1ccccc1")
7.52
